# tested_on: CD276, Q5ZPR3
# Sequence (Q5ZPR3 whole entry): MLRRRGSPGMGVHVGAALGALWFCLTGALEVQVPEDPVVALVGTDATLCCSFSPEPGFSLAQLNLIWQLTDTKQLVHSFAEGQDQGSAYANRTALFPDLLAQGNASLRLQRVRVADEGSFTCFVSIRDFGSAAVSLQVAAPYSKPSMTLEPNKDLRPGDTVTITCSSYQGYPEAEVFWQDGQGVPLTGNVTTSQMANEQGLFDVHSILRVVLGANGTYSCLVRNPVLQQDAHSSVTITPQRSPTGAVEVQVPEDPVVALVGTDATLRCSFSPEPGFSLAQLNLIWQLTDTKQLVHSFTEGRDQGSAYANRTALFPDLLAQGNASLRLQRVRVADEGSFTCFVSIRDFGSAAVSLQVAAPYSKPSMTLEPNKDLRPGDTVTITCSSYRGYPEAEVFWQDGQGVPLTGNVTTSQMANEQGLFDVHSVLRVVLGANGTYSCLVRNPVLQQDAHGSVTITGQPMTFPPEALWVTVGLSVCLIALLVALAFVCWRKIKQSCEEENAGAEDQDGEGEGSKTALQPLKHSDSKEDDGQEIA
result_type: binding in a display sort

>>> assay_value("design_488_244881a1-ba0c-4c08-ad9c-1f64cf93580a_1058_dldesign_0_cycle1_af2pred (protein) MAEAQALLLETAKEAYEYAKEDPENAEYYLAAATHVLRALSALTTDPAKAIELLEKAIEEAKKTDPEKGEELIKKIEEAKKLVEAAA")
"not found (inactive)"
>>> assay_value("design_391_ca6baf5d-2451-47ba-bffc-fc886679966a_2271_dldesign_0_cycle1_af2pred (protein) AAAEKEKEAEAKELFEKARKLAAEAAKLAVKAVGLSEEAYQLANEALQYAIEALEIVSAGEDLEKAKELLEKAQEKLKKATELVKKL")
"not found (inactive)"
>>> assay_value("design_620_fbd04095-bef7-46a9-992d-f2cb8915922f_1950_dldesign_0_cycle1_af2pred (protein) GVAETLKRNLEAAERILKEGEELFETDPAAGAAKFKSAELLATGVVATAEADPSVPEEILKRAKELAKRAKEALEEAEKKVEELKA")
"not found (inactive)"
>>> assay_value("design_486_d4f32670-1303-4d79-8413-1b14cb3eff50_973_dldesign_0_cycle1_af2pred (protein) DPAERAAEFRRRAEEVAAIYLAAAQANPAMAPVMAANVLATMRAWAAVWADNPAVAAAALEVGREAAARIA")
"not found (inactive)"
>>> assay_value("design_611_394c5ea9-a0d3-47c4-9d48-89ba6a28fdd0_2077_dldesign_0_cycle1_af2pred (protein) ASEELLKEAVTLNMRLAVEFPEVAKYARAAAHYLMAGDAEKAVESAEKMLEEAKKAGPEAAALAEKALKATKAAAADQAAER")
"not found (inactive)"
>>> assay_value("design_614_ef6b398b-10cb-4a07-8087-96dafb4f9c83_1110_dldesign_0_cycle1_af2pred (protein) GEELAESAKKLMEVLKDVAKDAAARDPANAAKYLADAKKAEEEAKKALEESPEKGMQAAQDALAKFQKAAIAAAKA")
"not found (inactive)"
>>> assay_value("design_612_bdadb936-3f14-48ad-830f-718e38d81c30_715_dldesign_0_cycle1_af2pred (protein) IEQLAALARASYRAVRVAAENLAAGRLTPEQLKAAAQLAEGTEKLAKETAAAYNADPATKEKAAEFEELARFAKEVRDAARAAL")
"not found (inactive)"
>>> assay_value("design_616_e8336982-fa4d-4d7c-b06f-9007953e1994_1745_dldesign_0_cycle1_af2pred (protein) APLEAVAKEAAEIAAKELPEASLEDALLVAEALLNPEKAKEYFAEVKKRLSPEDAARLFQTVGKAFSQLSLKLQAALAA")
"not found (inactive)"
>>> assay_value("design_487_778f5c6d-c470-43b8-8f82-464af6177e08_89_dldesign_0_cycle1_af2pred (protein) SEAEKEAEKAEKLVEELRANPKVPLEKAKELAKAIQELAKLDPEKGAEMASKAVAVILEKGKEIPGETINAILTGVSKAHAIINA")
"not found (inactive)"
